These measurements were taken from paper PMC9482650.

- assayedTarget: T1, RHPN1, Q8TCX5
- T1 sequence (Q8TCX5 508-602, limits assumed, looked up): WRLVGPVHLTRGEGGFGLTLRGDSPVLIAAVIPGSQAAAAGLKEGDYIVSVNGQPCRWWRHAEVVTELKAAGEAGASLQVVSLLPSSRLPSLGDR
- methodNotes: holdup assay
- Design: key: below the threshold = too weak to quantify, mostly under pKd 3.1 to 4
- conditionDescription: plain residues with an end cap or a label only (N-terminal biotin on a linker: ado-ado)
So I've got a bunch of binders here, and I need their pKd values.
Hey, just send me the number, nothing else.

Input: // lookup pKd for VKRNSKETVV [MARCHF3, Q86UD3]
Output: 4.07

Input: Entry under review: EDPRVEVTQF [SLC22A9, Q8IVM8] . Reported pKd?
Output: 4.4

Input: GET /values?readout=pKd&item= DGVNEKVSCV [HTR2A, P28223]
Output: 4.66

Input: # input binder: NVYGIESVKI [GRIA2, P42262] ; wanted: its pKd
Output: 3.81

Input: Entry DPAESMESLV [PTPRG, P23470] has what pKd?
Output: 4.17

Input: I am curious: what pKd value has been reported for TNSRHGETTV [FZD2, Q14332] ?
Output: 4.16

Input: Field request: pKd | item: EDLEDEWEVI [TECPR2, O15040]
Output: 3.57

Input: Returns the measured pKd for the input binder. Input: ILRKSTTTTV [PRR16, Q569H4]
Output: 4.01

Input: I'd like to know its pKd. The binder in question is GIKKITSTAL [RPS6KA3, P51812]
Output: 3.93

Input: // returns reported pKd for input PTPDLPQTRV [KLHDC7A, Q5VTJ3]
Output: 4.32
